assay: Primary qHTS for delayed death inhibitors of the malarial parasite plastid, 96 hour incubation; settings: P. falciparum luciferase reporter growth; series mostly up to 28.7 µM
Screen size: about 320,000 compounds; about 22,000 (6.9%) were called active. Inconclusive results (about 27%) are left out. The call rests on the fitted dose curve; in most records, active means well fitted inhibition curve with a large enough effect; inconclusive means small, poorly fitted or top-dose-only effect, or another doubt; inactive means no such curve, though single readings can be large or run the other way. Many of the other results were omitted from the sample, so actives are more common in it than they were.
Labels: true = active, false = inactive

Compound	Cat
COc1ccc(C2/C(=C(/O)c3ccc4c(c3)CC(C)O4)C(=O)C(=O)N2Cc2ccncc2)cc1 (stereo not drawn)	false
Cc1ccc(C(=O)NCC(=O)O)cc1S(=O)(=O)N1CCCCC1	false
CC(=O)Nc1ccc(S(=O)(=O)Nc2ccc(N3CCOCC3)c(F)c2)cc1	false
O=C(Nc1ccccc1-c1nc2ccccc2[nH]c1=O)c1cccs1	false
O=C(NC(=S)Nc1ccc(Cl)c(C(=O)O)c1)c1cncc(Br)c1	false
CCOC(=O)C1=C(COC(=O)[C@H](C)NS(=O)(=O)c2ccccc2F)NC(=O)NC1C (stereo partly drawn)	false
O=C(NNC(=O)c1cc(S(=O)(=O)N2CCCCC2)ccc1Cl)c1ccccc1O	false
COc1cccc(NC(=O)CN(C)C(=O)/C=C/c2cn(-c3ccccc3)nc2-c2cccs2)c1	false
CC(=O)Nc1ccc(S(=O)(=O)N2CCN(S(=O)(=O)c3cccs3)CC2)cc1	false
Cc1ccccc1N1CCN(Cc2nc(Cc3ccccc3F)no2)CC1	false
Cc1cccc2c1N(CC(=O)OC(C)C)C(=O)C2=O	false
COc1ccc2c(c1)N(C)/C(=C1/SC(=S)N(NC(C)=O)C1=O)S2	false
COc1cc(C(=O)Nc2ncccc2C)ccc1OCC(=O)N1CCOCC1	false
Cc1ccc(-c2cc(=O)c3ccc(Cl)cc3[nH]2)cc1	false
Cc1cccc2sc(N(CCCN(C)C)C(=O)CCS(=O)(=O)c3ccccc3)nc12	false
CCOc1ccccc1N1C(=O)CC(Sc2nccc(C)n2)C1=O (stereo not drawn)	false
COc1ccc(NS(=O)(=O)c2ccc(C)c(C(=O)NNC(=O)c3csc(N4CCOCC4)n3)c2)cc1	false
Nn1c(Cc2cccc3ccccc23)nnc1SCC(=O)N1CC(=O)Nc2ccccc21	false
C=CCn1c(COc2ccccc2C)nnc1SCC(=O)O	false
O=Cc1cn(Cc2ccccc2)nc1-c1cccnc1	false
CC(C)N(Cc1ccccc1)C(=O)COC(=O)c1ccccc1SCC(=O)N1CCCC1	false
COc1cc2c(cc1OC)C(C(=O)NCc1ccco1)C1c3ccccc3CCN1C2=O (stereo not drawn)	true
CCC(C)(C)NC(=O)C(c1ccc(O)cc1)N(Cc1ccco1)C(=O)CCC(=O)Nc1ccccn1 (stereo not drawn)	false
CCOC(=O)c1c(N)nn(C(=O)c2ccccc2)c1-c1ccccc1	false
CC(C)Oc1ccc(CCc2n[nH]c(=S)n2Cc2ccccc2)cc1	true
CCc1cccc(NC(=O)C2CCCN(S(=O)(=O)c3ccc4[nH]c(=O)ccc4c3)C2)c1 (stereo not drawn)	false
C=CCn1c(CCc2ccc(OC(C)C)cc2)n[nH]c1=S	false
Cc1cc(NC(=O)CCC(=O)N(CC(=O)NC2CCCC2)c2ccc(F)cc2)no1	false
CC(C)OC(=O)CN1C(=O)c2ccccc2C1=O	true
CC(NS(=O)(=O)c1ccccc1)c1n[nH]c(=S)n1-c1ccccc1 (stereo not drawn)	false
Cc1cccc(C)c1NC(=O)CN(C)C(=O)CCC(=O)c1ccccc1	false
C=CCOc1ccc(/C=C/C(=O)OCC(=O)NC(C)c2ccc(F)cc2)cc1 (stereo not drawn)	false
C=CCNC(=O)c1ccccc1SCc1c(C)noc1C	false
CCOC(=O)CN1C(=O)C(=O)c2cc(C)ccc21	false
Cc1ccc(S(=O)(=O)/N=C(\N)c2ccc(F)cc2)cc1	false
Cc1cccc(NC(=O)CSc2nnc(CCNC(=O)OC(C)(C)C)o2)c1C	false
Cc1ccc(-c2cc(=O)c3ccc(F)cc3[nH]2)cc1	true
CC(C)(C)c1csc(NC2=NS(=O)(=O)c3ccccc32)n1	false
CN1CCc2nc(SC(C(=O)O)c3ccccc3)c(C#N)c(-c3cccs3)c2C1 (stereo not drawn)	false
Cc1cccc(C)c1NC(=O)CS(=O)CC(=O)N1CCN(c2ccccc2)CC1 (stereo not drawn)	false
COc1ccc(S(=O)(=O)n2nc(C)c(S(=O)(=O)N3CCOCC3)c2C)cc1	false
Cc1ccc(C)c(C(=O)N2CCC(n3nccc3NC(=O)C3CC3)CC2)c1	false
Cc1cc(C)cc(OCC(=O)OCC(=O)NC2CCCC2)c1	false

Where do these numbers come from? They come from PubChem BioAssay AID504834.
